# Tested on: L-type calcium channel
# RUN_DESCRIPTION: IC50 with respect to the L-type calcium channel
# Format: biochemical
PARAMETER: pIC50
Answer as the number alone; pIC50 is minus log10 of concentration in mol/L.

In the examples that follow, each entry is paired with its recorded pIC50.
[
  {
    "COMPOUND": "CCCCCCCN1C2C3C4CC5C6C4C2C6C1(O)C53 (stereo not shown)",
    "SYSTEM_UNDER_TEST": "L-type calcium channel",
    "EXPERIMENTAL_RESULT": 5.12
  },
  {
    "COMPOUND": "OC12C3C4CC5C6C4C1C6C(C53)N2CCc1ccccc1 (stereo not shown)",
    "SYSTEM_UNDER_TEST": "L-type calcium channel",
    "EXPERIMENTAL_RESULT": 5.17
  },
  {
    "COMPOUND": "c1ccc(CNC23OC4C5C6CC(C7C6C4C72)C53)cc1 (stereo not shown)",
    "SYSTEM_UNDER_TEST": "L-type calcium channel",
    "EXPERIMENTAL_RESULT": 4.22
  }
]

Now take the following compound into account.
Data request: Using the record for CCCCCCCN1CCC2CC3CCCC3C21 (stereo not shown) , report its pIC50.
Data returned: 4.26
